Can you tell me Activity for human GLP-1R (EC50 nM), cAMP HTRF for the items I'm about to list?
- MEASURED_TARGET: human glucagon-like peptide-1 receptor (human, UniProt P43220)
- EXPERIMENTAL_PROTOCOL: cell-based or functional assay
Numbered stars: 1 amine (or outer) side, 2 acyl side, 3 side chain; on linkers, the order of the positions; unused ones are H or OH. Square brackets hold non-standard residues; d marks the D form. Side chains are listed from the residue outwards. Ends that are not written are not given here. γGlu = O=C(O)[C@H](CCC(=O)[*:2])N[*:1]; AEEA = NCCOCCOCC(=O)O; Aib = CC(C)(N)C(=O)O
Give bare numbers, in nM.

Below, 3 binders whose answers are already recorded.
Y[Aib]EGTFTSDYSIYLDKIAAQEFVNWLLAGGPSSGAPPPSK([AEEA-AEEA-γGlu-C18‑OH])-NH2 [Compound No. 62]
0.32
H-Y[Aib]EGTFTSDYSIYLEKIAAKEFVNWLLAGGPSSGAPPPS-NH2 (not fully specified (residue 20); printed as H-YAibEGTFTSDYSIYLEKIAAK(OEG-OEG-yGlu-C18-OH)EFVNWLLAG / GPSSGAPPPS-NH2) [Compound No. 30]
0.058
Y[Aib]EGTFTSDYSIYLEKIAAK([AEEA-AEEA-γGlu-C20‑OH])EFVNWLLAGGPSSGAPPPS-NH2 [Compound No. 75]
0.2

As a next step, examine the binder that follows.
IN: In one line, give reported Activity for human GLP-1R (EC50 nM), cAMP HTRF of the entry Y[Aib]EGTFTSDYSIYLEKIAAQEFVNWLIAGGPSSGAPPPSK([AEEA-AEEA-γGlu-C20‑OH])-NH2 [Compound No. 83] .
OUT: 0.028

Entry source: patent US20220168396A1
